Reported Emax values for the following compounds.
# System: Panc 05.04 cells (pancreatic cancer cells; Q699H and K700E mutations in SF3B1)
# protocol_notes: Cell viability assay (CellTiter-Glo, 72 hr), Panc 05.04 cells
# Type: cell-based
# study_conditions: Panc 05.04 cells (mutant SF3B1); maximum achievable response in tested dose range, negative value = cellular lethality; read-out: Panc 05.04 (mt SF3B1 cells) Emax (%)
# Method: Cells (WiDr and Panc05.04 obtained from ATCC) were seeded in 96-well plates, with 2000 cells/100 μL/well, and incubated overnight. […] Another plate with cells seeded was dedicated as a time zero (Tz) plate, to which was added 0.1% DMSO in media (100 μL/well) followed by CellTiter-Glo® reagent (Promega Corporation, Madison, Wisconsin) (50 μL/well) for ATP measurement as a surrogate of cell viability. […] Then, CellTiter-Glo® reagent (50 μL/well) was added and ATP was measured. […]
Give the value, in units of %, as a plain number.

A selection of reference data follows.
INSERT INTO measurements (compound, measured_quantity, assay_value) VALUES
  ('CC(=O)O[C@H]1/C=C/[C@H](C)[C@@H](/C(C)=C/C=C/[C@@H](C)COC(=O)N(C)C)OC(=O)C[C@H](O)CC[C@@]1(C)O', 'Emax', -91.2),
  ('COC[C@H]1CCCN1C(=O)OC[C@H](C)/C=C/C=C(\C)[C@H]1OC(=O)C[C@H](O)CC[C@@](C)(O)[C@@H](OC(C)=O)/C=C/[C@@H]1C', 'Emax', -90.9),
  ('CC(=O)O[C@H]1/C=C/[C@H](C)[C@@H](/C(C)=C/C=C/[C@@H](C)COC(=O)N2CCC[C@@H]2C)OC(=O)C[C@H](O)CC[C@@]1(C)O', 'Emax', -90);

Report Emax for C/C(=C\C=C\[C@@H](C)c1ccccn1)[C@H]1OC(=O)C[C@H](O)CC[C@@](C)(O)[C@@H](OC(=O)N2CCN(C3CCCCC3)CC2)/C=C/[C@@H]1C please.
-94.3

Item under review: C/C(=C\C=C\C(C)c1cccc(N2CCCC2)n1)[C@H]1OC(=O)C[C@H](O)CC[C@@](C)(O)[C@@H](OC(=O)N2CCN(C3CCCCCC3)CC2)/C=C/[C@@H]1C (stereo partly drawn) . Reported Emax?
-95.3

Bench note: what Emax did C/C(=C\C=C\C(C)c1ncccc1C)[C@H]1OC(=O)C[C@H](O)CC[C@@](C)(O)[C@@H](OC(=O)N2CCN(C3CCCCCC3)CC2)/C=C/[C@@H]1C (stereo partly drawn) show?
-92.3

---

# System: Panc 05.04 cells (pancreatic cancer cells; Q699H and K700E mutations in SF3B1)
# protocol_notes: Cell viability assay (CellTiter-Glo, 72 hr), Panc 05.04 cells
# Format: cell-based
# study_conditions: Panc 05.04 cells (mutant SF3B1); maximum achievable response in tested dose range, negative value = cellular lethality; read-out: Panc 05.04 (mt SF3B1 cells) Emax (%)
measured_quantity: Emax (%)
Write the value in % as a bare number.

INSERT INTO results (molecule, measured_quantity, assay_value) VALUES
  ('C/C(=C\C=C\[C@@H](C)c1ccccn1)[C@H]1OC(=O)C[C@H](O)CC[C@@](C)(O)[C@@H](OC(=O)N(C)C2CCN(C)CC2)/C=C/[C@@H]1C', 'Emax', -60.2);

Hi! What's the reported Emax for C/C(=C\C=C\[C@@H](C)c1ccccn1)[C@H]1OC(=O)C[C@H](O)CC[C@H](C)[C@@H](OC(=O)N(C)C)/C=C/[C@@H]1C on Panc 05.04 cells (pancreatic cancer cells; Q699H and K700E mutations in SF3B1)?
24

Fill in the recorded Emax for this molecule, with Panc 05.04 cells (pancreatic cancer cells; Q699H and K700E mutations in SF3B1) as test system: CCCN(C)C(=O)OC[C@H](C)/C=C/C=C(\C)[C@H]1OC(=O)C[C@H](O)CC[C@@](C)(O)[C@@H](OC(=O)N2CCN(C3CCCCCC3)CC2)/C=C/[C@@H]1C
-92.4

Record C/C(=C\C=C\[C@@H](C)c1ccccn1)[C@H]1OC(=O)C[C@H](O)CC[C@@](C)(O)[C@@H](O)/C=C/[C@@H]1C : what is its Emax with Panc 05.04 cells (pancreatic cancer cells; Q699H and K700E mutations in SF3B1)?
49.5

Recall the recorded Emax for C/C(=C\C=C\[C@@H](C)c1ccccn1)[C@H]1OC(=O)CCCCC[C@@H](OC(=O)N2CCN(C)CC2)/C=C/[C@@H]1C with Panc 05.04 cells (pancreatic cancer cells; Q699H and K700E mutations in SF3B1) and state it.
-93.5

Lookup: Emax / Panc 05.04 cells (pancreatic cancer cells; Q699H and K700E mutations in SF3B1) / C/C(=C\C=C\[C@@H](C)c1ccccn1)[C@H]1OC(=O)C[C@H](O)CC[C@@](C)(O)[C@@H](OC(=O)N2CCN(C(C)(C)C)CC2)/C=C/[C@@H]1C
-78.1

Recorded Emax for C/C(=C\C=C\[C@@H](C)c1ccccn1)[C@H]1OC(=O)C[C@H](O)CC[C@@](C)(O)[C@@H](OC(=O)N2CCN(C(C)C)CC2)/C=C/[C@@H]1C with Panc 05.04 cells (pancreatic cancer cells; Q699H and K700E mutations in SF3B1), please?
-90.1

Lookup: Emax / Panc 05.04 cells (pancreatic cancer cells; Q699H and K700E mutations in SF3B1) / COc1cccc(C(C)/C=C/C=C(\C)[C@H]2OC(=O)C[C@H](O)CC[C@@](C)(O)[C@@H](OC(C)=O)/C=C/[C@@H]2C)n1 (stereo partly shown)
-12.7

Recall the recorded Emax for C/C(=C\C=C\[C@@H](C)COC(=O)N1CCCC1C(C)O)[C@H]1OC(=O)C[C@H](O)CC[C@@](C)(O)[C@@H](OC(=O)N2CCN(C)CC2)/C=C/[C@@H]1C (stereo partly shown) with Panc 05.04 cells (pancreatic cancer cells; Q699H and K700E mutations in SF3B1) and state it.
-85.4

---

List of GI50 values.
# Test system: Panc 05.04 cells (pancreatic cancer cells; Q699H and K700E mutations in SF3B1)
# protocol_notes: Cell viability assay (CellTiter-Glo, 72 hr), Panc 05.04 cells
# Format: cell-based
# study_conditions: Panc 05.04 cells (mutant SF3B1); read-out: Panc 05.04 (mt SF3B1 cells), GI50
Please state the figure in µM; there is no need to write the unit.

INSERT INTO results (line_notation, experimental_target, assay_value) VALUES
  ('C/C(=C\C=C\[C@@H](C)c1ccccn1)[C@H]1OC(=O)C[C@H](O)CC[C@@](C)(O)[C@@H](OC(=O)N2C[C@H]3C[C@H]2CN3C)/C=C/[C@@H]1C', 'Panc 05.04 cells (pancreatic cancer cells; Q699H and K700E mutations in SF3B1)', 0.0564);

Next molecule, please.
Return reported GI50; argument: C/C(=C\C=C\[C@@H](C)c1ccccn1)[C@H]1OC(=O)C[C@H](O)CC[C@H](C)[C@@H](OC(=O)N2CCN(C3CCCCCC3)CC2)/C=C/[C@@H]1C
0.044

---

# Tested on: Panc 05.04 cells (pancreatic cancer cells; Q699H and K700E mutations in SF3B1)
# protocol_notes: Cell viability assay (CellTiter-Glo, 72 hr), Panc 05.04 cells
# Assay type: cell-based
# study_conditions: Panc 05.04 cells (mutant SF3B1); maximum achievable response in tested dose range, negative value = cellular lethality; read-out: Panc 05.04 (mt SF3B1 cells) Emax (%)
# Experimental: Cells (WiDr and Panc05.04 obtained from ATCC) were seeded in 96-well plates, with 2000 cells/100 μL/well, and incubated overnight. […] Another plate with cells seeded was dedicated as a time zero (Tz) plate, to which was added 0.1% DMSO in media (100 μL/well) followed by CellTiter-Glo® reagent (Promega Corporation, Madison, Wisconsin) (50 μL/well) for ATP measurement as a surrogate of cell viability. […] Then, CellTiter-Glo® reagent (50 μL/well) was added and ATP was measured. […]
measured_quantity: Emax (%)
Field format: number, assumed %, no unit text.

Past entries and their recorded results:
INSERT INTO results (line_notation, assay_value) VALUES
  ('C/C(=C\C=C\[C@@H](C)CNC(=O)C1CCCC1)[C@H]1OC(=O)C[C@H](O)CC[C@@](C)(O)[C@@H](OC(=O)N2CCN(C)CC2)/C=C/[C@@H]1C', -57),
  ('C/C(=C\C=C\[C@H](C)COC(=O)N1CCCC1)[C@H]1OC(=O)C[C@H](O)CC[C@@](C)(O)[C@@H](OC(=O)N2CCN(C3CCCCCC3)CC2)/C=C/[C@@H]1C', -93.5);

Moving on to another compound below.
Emax lookup needed for CC(=O)O[C@H]1/C=C/[C@H](C)[C@@H](/C(C)=C/C=C/[C@@H](C)COC(=O)N2CCCC2)OC(=O)C[C@H](O)CC[C@@]1(C)O , thanks.
-94.1
